Value source: ChEMBL document CHEMBL1125048

experimentalSystem: Adrenergic receptor alpha-2 (Rattus norvegicus, UniProt P22086+P19328+P22909)
assayMethodText: Binding affinity was determined against alpha-2 adrenergic receptor of rat cerebral cortex using [3H]idazoxan as radioligand
Assay type: tissue-based
Binarize Log Ki at -7; below is Satisfied, at or above is Not satisfied.

| entrySmiles | classification |
| --- | --- |
| COc1ccc2c(c1OC)CCN(CC1=NCCN1)C2.Cl.Cl | Not satisfied |
| Cl.Cl.Clc1cccc2c1CN(CC1=NCCN1)CC2 | Satisfied |
| Cl.Cl.c1ccc2c(c1)CN(CC1=NCCN1)C2 | Satisfied |

---

The entries below come with measured Log Ki values attached.
experimentalSystem: Adrenergic receptor alpha-2 (Rattus norvegicus, UniProt P22086+P19328+P22909)
assayMethodText: Binding affinity to the alpha-2 adrenergic receptor of rat cerebral cortex assayed using [3H]idazoxan as radioligand
Assay type: tissue-based

| compound | experimentalSystem | Log Ki |
| --- | --- | --- |
| CC1c2cccc(Cl)c2CCN1CC1=NCCN1.Cl.Cl (stereo unspecified) | Adrenergic receptor alpha-2 (Rattus norvegicus, UniProt P22086+P19328+P22909) | -7.62 |
| CC1c2ccccc2CCN1CC1=NCCN1.Cl.Cl (stereo unspecified) | Adrenergic receptor alpha-2 (Rattus norvegicus, UniProt P22086+P19328+P22909) | -7.32 |
| CC1(C)c2ccccc2CCN1CC1=NCCN1.Cl.Cl | Adrenergic receptor alpha-2 (Rattus norvegicus, UniProt P22086+P19328+P22909) | -6.68 |
| COc1cccc2c1CCN(CC1=NCCN1)C2.Cl.Cl | Adrenergic receptor alpha-2 (Rattus norvegicus, UniProt P22086+P19328+P22909) | -8 |
| COc1cc2c(cc1OC)CN(CC1=NCCN1)CC2.Cl.Cl | Adrenergic receptor alpha-2 (Rattus norvegicus, UniProt P22086+P19328+P22909) | -6.13 |
| C=CCC1c2ccccc2CCN1CC1=NCCN1.Cl.Cl (stereo unspecified) | Adrenergic receptor alpha-2 (Rattus norvegicus, UniProt P22086+P19328+P22909) | -6.41 |

---

experimentalSystem: Adrenergic receptor alpha-2 (Rattus norvegicus) (UniProt P22086+P19328+P22909)
assayMethodText: Antilog of the [3H]-idazoxan pKi minus the [3H]yohimbine pKi was determined
Type: protein assay
# label = TRUE if Ratio >= 0.6 else FALSE

| molecule | experimentalSystem | classification |
| --- | --- | --- |
| Cl.Cl.c1ccc2c(c1)CN(CC1=NCCN1)C2 | Adrenergic receptor alpha-2 (Rattus norvegicus) (UniProt P22086+P19328+P22909) | TRUE |
| Cl.Cl.Clc1ccc2c(c1)CCN(CC1=NCCN1)C2 | Adrenergic receptor alpha-2 (Rattus norvegicus) (UniProt P22086+P19328+P22909) | TRUE |
| COc1ccc(OC)c2c1CCN(CC1=NCCN1)C2C.Cl.Cl (stereo not given) | Adrenergic receptor alpha-2 (Rattus norvegicus) (UniProt P22086+P19328+P22909) | FALSE |
| Cl.Cl.Clc1cccc2c1CN(CC1=NCCN1)CC2 | Adrenergic receptor alpha-2 (Rattus norvegicus) (UniProt P22086+P19328+P22909) | TRUE |

---

experimentalSystem: Adrenergic receptor alpha-2 (Rattus norvegicus, UniProt P22086+P19328+P22909)
assayMethodText: Binding affinity to the alpha-2 adrenergic receptor of rat cerebral cortex assayed using [3H]idazoxan as radioligand
Assay type: tissue-based
metricName: Log Ki

| molecule | obsValue |
| --- | --- |
| Cl.Cl.c1ccc2c(c1)CCN(CC1=NCCN1)C2 | -7.77 |
| Cl.Cl.Clc1ccc2c(c1Cl)CCN(CC1=NCCN1)C2 | -7.67 |
| Cl.Cl.O=[N+]([O-])c1cccc2c1CCN(CC1=NCCN1)C2 | -7.14 |
| COc1ccc(OC)c2c1CCN(CC1=NCCN1)C2.Cl.Cl | -7.8 |
| Cl.Cl.Clc1ccc2c(c1Cl)CN(CC1=NCCN1)CC2 | -7.68 |
| Cl.Cl.Fc1cccc2c1CN(CC1=NCCN1)CC2 | -8.27 |
| Cc1cccc2c1CCN(CC1=NCCN1)C2.Cl.Cl | -7.38 |
| Cl.Nc1cccc2c1CCN(CC1=NCCN1)C2 | -6.99 |
| COc1cc2c(c(OC)c1)CN(CC1=NCCN1)CC2.Cl.Cl | -7.2 |
| Cl.Cl.Clc1ccc(Cl)c2c1CCN(CC1=NCCN1)C2 | -8.12 |
| CC1Cc2ccccc2CN1CC1=NCCN1.Cl.Cl (configuration not stated) | -7.38 |
| CCC1c2ccccc2CCN1CC1=NCCN1.Cl.Cl (configuration not stated) | -6.31 |
